# assay.target: T1, thermolysin-cleaved EBOV GP on Jurkat-GP cells (cleaved GP) (Zaire ebolavirus, Makona (GP1 core …, strain))
# T1 chain 1: not shown
# T1 chain 2: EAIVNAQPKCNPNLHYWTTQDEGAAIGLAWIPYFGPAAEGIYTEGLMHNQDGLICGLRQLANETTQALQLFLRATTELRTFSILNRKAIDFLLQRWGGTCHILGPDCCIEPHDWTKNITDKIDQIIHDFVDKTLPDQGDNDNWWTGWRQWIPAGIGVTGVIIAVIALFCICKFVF
readout.label: binding result

binder | reported.result
5.6.c3412 (antibody, V domains shown) VH: QIQLVESGGGVVQPVRSLRLTCAASGFTFSQYGMHWVRQAPGKGLEWVAVISYDGTQKYYSDSVKGRFTISRDNAKNTLSLQMNGLRAEDTAVYYCAKGFLERNFDLWSGSYSDSGWRGPYYGMDFWGQGTTVIVSS VL: QTVVTQEPSFSVSPGGTVTITCALSSGSVSASLYPSWYQQTPGQAPRTLIYSTNTRSSGVPDRFSGSILGNKAALTITGAQADDESDYYCVLFMSSGIYVFGTGTKVTVL | binds
5.6.c3191 (antibody, V domains shown) VH: QVQLAQSGAEVKKPGASVKVSCKSSGYNFTTHGFNWVRQVPGQGLEWMGWISAYNADTNYAQKFQGRLTLTTETSSNTAYMELRSLTSDDTAVYYCARGEEYSTLYFYGMDVWGQGTTVTVSS VL: DIQMTQSPSSVSASVGDRVTITCRASQGISIWLAWYQQKPGKAPKLLIYGASTLQSGVPSRFSGSGSGADYTLTINSLQPEDFATYFCQQAHSFPYTFGQGTKLEIR | binds
